Biological target: uronate isomerase (URI) from E. coli (Escherichia coli)
Sequence (P0A8G3 1-470): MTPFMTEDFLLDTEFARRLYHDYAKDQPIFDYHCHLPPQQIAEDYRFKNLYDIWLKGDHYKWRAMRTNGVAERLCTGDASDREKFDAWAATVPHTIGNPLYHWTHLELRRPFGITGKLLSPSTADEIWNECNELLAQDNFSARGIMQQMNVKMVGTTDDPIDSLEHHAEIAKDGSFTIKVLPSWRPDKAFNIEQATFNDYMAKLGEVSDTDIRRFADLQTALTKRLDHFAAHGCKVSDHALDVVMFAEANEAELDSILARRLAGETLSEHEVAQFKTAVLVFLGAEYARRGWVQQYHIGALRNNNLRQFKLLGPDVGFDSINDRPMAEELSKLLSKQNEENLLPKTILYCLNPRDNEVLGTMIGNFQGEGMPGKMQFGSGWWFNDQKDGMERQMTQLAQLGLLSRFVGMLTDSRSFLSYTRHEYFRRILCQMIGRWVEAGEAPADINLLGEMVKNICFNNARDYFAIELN
ASSAY_ENDPOINT: Ki (µM)

MOLECULE	OBSERVED
O=C(O)[C@H]1OC[C@H](O)[C@@H](O)[C@@H]1O [IV, 2,6-Anhydro-L-gulonic acid]	45

###

molecular target: Bh0493, uronate isomerase from Bacillus halodurans (Halalkalibacterium halodurans, UniProt Q9KFI6)
Sequence (Q9KFI6 1-427): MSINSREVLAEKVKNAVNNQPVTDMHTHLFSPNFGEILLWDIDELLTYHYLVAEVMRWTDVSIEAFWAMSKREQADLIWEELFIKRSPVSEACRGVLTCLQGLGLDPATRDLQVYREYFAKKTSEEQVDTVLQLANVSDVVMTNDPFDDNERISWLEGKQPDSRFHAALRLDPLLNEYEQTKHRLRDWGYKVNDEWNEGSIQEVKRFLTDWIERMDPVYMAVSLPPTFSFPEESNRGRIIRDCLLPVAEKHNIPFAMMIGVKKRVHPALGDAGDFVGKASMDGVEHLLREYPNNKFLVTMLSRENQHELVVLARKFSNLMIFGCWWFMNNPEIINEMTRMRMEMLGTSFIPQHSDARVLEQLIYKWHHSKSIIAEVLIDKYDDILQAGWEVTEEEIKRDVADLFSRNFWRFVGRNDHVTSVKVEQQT
pKi: −log10 of the molar value.

COMPOUND	pKi
O=C(O)[C@H]1OC[C@H](O)[C@@H](O)[C@@H]1O [IV, 2,6-Anhydro-L-gulonic acid]	4.62
